Molecular target: Gamma-secretase
Assay: Inhibition of gamma secretase in human SKNBE2 cells expressing human APP695 assessed as reduction in Abeta42 levels incubated for 18 hrs by sandwich ELISA
Exam item: assign satisfied to entries whose IC50 is below 40 nM and not satisfied to entries at or above 40 nM. Note that a value of exactly 40 nM receives not satisfied.

Solved entries (count: 4):
>>> df
                                   molecule     labelclass
0  COc1c(C#N)ccc2[nH]c(-c3nc4n(n3)CCO[C@H]4c3ccccc3C(F)(F)F)cc12  not satisfied
1  COc1c(C#N)ccc2[nH]c(-c3cn4c(n3)C(c3ccc(F)cc3C)CCC4)cc12 (racemic)  not satisfied
2  COc1c(C#N)ccc2[nH]c(-c3cn4c(n3)[C@H](c3c(F)cccc3C(F)(F)F)OCC4)cc12      satisfied
3  COc1c(C#N)ccc2[nH]c(-c3cn4c(n3)[C@H](c3ccc(F)cc3C)OCC4)cc12      satisfied

stdin: Hi there! Is IC50 for COc1c(C#N)ccc2[nH]c(-c3nc4n(n3)CCO[C@H]4c3cc(C(F)(F)F)ccc3F)cc12 below 40 nM, do you know?
stdout: not satisfied

stdin: Hi there! Is IC50 for COc1c(C#N)ccc2[nH]c(-c3nc4n(n3)CCCC4c3ccc(F)cc3C)cc12 (racemic) below 40 nM, do you know?
stdout: satisfied

stdin: Hi there! Is IC50 for COc1c(C#N)ccc2[nH]c(-c3cn4c(n3)C(c3ccccc3Cl)CC(C)(O)C4)cc12 (stereo not drawn) below 40 nM, do you know?
stdout: satisfied

stdin: Hi there! Is IC50 for COc1c(C#N)ccc2[nH]c(-c3cn4c(n3)[C@H](c3ccccc3Cl)O[C@@H](C)C4)cc12 below 40 nM, do you know?
stdout: not satisfied

These data points were gathered from ChEMBL document CHEMBL4387734.
